For each of the compounds below, state its TGI.
- Tested on: LOX IMVI melanoma
- assay_name: NCI tumour cell line growth inhibition, 48 h

Task: Give the reported TGI for this compound. NC(=O)CCC(NC(=O)OCc1ccccc1)C(=O)OCC(=O)c1ccccc1 (stereo not given)
Result: > 100 µM

Task: Give the reported TGI for this compound. C=C1CCC2C3(C)COC(c4ccc(NC(C)=O)cc4)OC3CCC2(C)C1C/C=C1/C(=O)OCC1O (stereo not given)
Result: > 100 µM

Task: Give the reported TGI for this compound. CCCCCCCCCCCC(=O)OCC1OC(n2cc(F)c(=O)[nH]c2=O)C(NC(=O)OCc2ccccc2)C(O)C1O (stereo not given)
Result: 32.4 µM

Task: Give the reported TGI for this compound. Nc1ccc2c(c1)C(=O)c1ccccc1-2
Result: > 100 µM

Task: Give the reported TGI for this compound. COc1ccc(-c2oc(=O)ccc2C#Cc2cc(OC)c(OC)c(OC)c2)cc1O
Result: > 100 µM

Task: Give the reported TGI for this compound. O=C(Nn1c(-c2ccccc2)nc2ccccc2c1=O)c1ccccn1
Result: > 100 µM

Task: Give the reported TGI for this compound. Nc1nc2c(ncn2C2OC(CO)C(O)C2N)c(=O)[nH]1 (stereo not given)
Result: > 100 µM

Task: Give the reported TGI for this compound. CC(=O)/C=C/C=C(\C)CC/C=C(\C)CC(C)C
Result: 34 µM

Task: Give the reported TGI for this compound. COC(=O)[C@H](C)N1C(=O)N[C@@H](C(C)C)C1=O
Result: > 100 µM

Task: Give the reported TGI for this compound. COC(=O)C[CH](C(=O)OC)[Ge]([CH3])([CH3])[S]c1ccccc1 (stereo not given)
Result: 17.1 µM
